Experiment: Pharmacokinetic study in rats after oral administration of Z. nitidum decoction (HPLC-MS/MS)
Assay type: in vivo, Sprague–Dawley rats
Conditions: Sprague-Dawley, rat, in vivo, po
Experimental: The HPLC analysis performed on a Surveyor plus HPLC system (Thermo Fisher Scientific, Waltham, MA, USA). The separation was executed by a Thermo Accucore aq C18 column (100 × 2.1 mm, 2.6 μm) (Thermo Fisher Scientific, Waltham, MA, USA) maintained at 30 °C. The mobile phase consisted of Solvent A (0.1% formic acid solution) and Solvent B (0.1% formic acid acetonitrile). The flow rate was 0.3 mL/min. […]
assay.metric: Cmax (ng/mL)
Quick reminder: number only, in ng/mL, skip the unit.

Request: What does the record list as Cmax for COc1ccc2c(OC)c3ccoc3nc2c1OC ?
Response: 8.91

###

experiment: Pharmacokinetic study in rats after oral administration of Z. nitidum decoction (HPLC-MS/MS); format: in vivo, Sprague–Dawley rats; conditions: Sprague-Dawley; rat plasma, oral Z. nitidum decoction 5.4 mL kg−1, Mean ± SD, n = 6; read-out: AUC0-∞
assay.metric: AUC(0-inf) (ng·h/mL)
Quick reminder: number only, in ng·h/mL, skip the unit.

Request: What does the record list as AUC(0-inf) for COc1ccc2c(c1O)-c1c(O)c(OC)cc3c1[C@H](C2)[N+](C)(C)CC3 [Magnoflorine, magnoflorine] ?
Response: 438
